Assay Explanation: yeast display, Sf9 membrane polyspecificity reagent, FACS + sequencing; frameworks hold sequencing errors
Readout Name: polyreactivity (PSR sort gate)

1) QVQLVESGGGLVQAGGSLRLSCAASGFIFRYYAMGWYRQAPGKERELVADISWSGGSTHYADSVKGRFTISRDNAKNTVYLQMNSQKPEDTAVYYCAADPTLYSSWSTYYRSNYWGQGTQVTVSS ... high polyreactivity
2) QVQLVESGGGLVQAGGSLRLSCAASGRTFPSYTMGWYRQAPGKERELVAPNDGGGDTYYADSVKGRFTISRDNAKNSVYLQMKSLKPEDTAVYYCRDWYPSYWYYYYAEYDYWGQGTQVTVSS ... high polyreactivity
3) QVQLVESGGGLVQAGGSLRLSCAASGSIFEYNAMGWYRQAPWKERELVAAITSGGSTNYADSVKGRFTISRDNAKNTVYLQMNSLKPEDTAVYYCAKKYRSVPKYLYRITKYNYWGQGTQVTVSS ... low polyreactivity
4) QVQLVESGGGLVQAGGSLRLICAASGRIFGDNAMGWYRQAPGKERELVAGIRWRADRTYYADSVKGRFTISRDNAKNTFYLQMNSLKPEDTAVYYCAARGGGYYDFDYWGQGTQVTVSS ... low polyreactivity
5) QVLLVESGGGLVQAGGSLRVSCAASGSTFPYYAMGWYRQAPGKERELVAAITSSASTYYADSVKGRFTISRDNAKNTVYLQMNSLKPEDTAVYYCAVRTPYRLSRWRVGYWGQGTQVTVSS ... high polyreactivity

----------
Assay Explanation: yeast display, Sf9 membrane polyspecificity reagent, FACS + sequencing; frameworks hold sequencing errors
Readout Name: polyreactivity (PSR sort gate)

1) QVQLVESGGGLVQAGGSLSLSCAASGRIFNRNAMGWYRQAPGKERELVASISSGGRTNYADSVKGRFTISRDNAKNTFYLQMNSLKPEDTAVYYCAAKSPRILLDYWGQGTQVTVSS ... low polyreactivity
2) QVQLVESGGGLVQAGGSLRLSCAASGSIFYRNVMGWYRQAPGKERELVAAISRSGGSTYYADSVKGRFTISRDNAKNTVYLQMNSLQPEDTAVYYCAGRYSPFYYWGQGTQVTVSS ... high polyreactivity
3) QVQLVESWGGLVQAGGSHRLSCSASGTILGDYGMGWYRQAPGKEREMVGAITWNGDSTYYADSVKGRFTISRDNAKNTVYLQMNSLKPEDTAVYYCAADLKDYKYYPWYGYWGQGTQVTVSS ... low polyreactivity
4) QVQLVESGGGLVQAGGSLRLSCAASGRTFSVNAMGWYRQAPGKERELVAAIAWDGGSTYYADSVKGRFTISRDNAKNTVYLQMNSLKPEDTAVYYCNKDLYYAYDYWGQGTQVTVSS ... low polyreactivity
5) QVQLVESGGGLVQAGGSLRLSCAASGSIFYVYAMGWYRQAPGNERELVAAINTSGGSTFYADSVKGRFTISRDNAKNTVYLQINSLKPEDTAVYYCAAERYRYRSTDTMGYWGQGTQVTVSS ... low polyreactivity
6) QVQLVESGGGLVQAGGSLRLSCAASGRTFVGYAMGWYRQAPGKERELVASITASGGRTYYADSVKGRFTISRDNAKNTVYLQMNSLKPEDTAVYYCAAYIHWSEDYWGQGTQVTVSS ... low polyreactivity
7) QVQLVESGGGLVQAGGSLRLSCAASGFIFFDNAMGWYRHAPGKETELVAVISSSGTSTYYADSVKGRFTISRDNAKNTVYLQMNSLKPEDTAVYYCNATARTGVYLESDYWGQGTQVTVSS ... low polyreactivity
8) QVQLVESGGGLVQAGGSLRLSCAASGFIFYKYAMGWYRQAPGKERELVAAISKRGGSTYYADSVKGRFTISRDNAKNTVYLQMNSLKPEDNAVYYCATVGGNSGTVRYFASDYWGQGTKVTVSS ... high polyreactivity
9) QVQHVESGGGLVQAGGSLRLSCAASGRIISYNAMGWYRQAPGKERELVAAISWGGGSTYYADSVKGRFTISRDNAKNTVYLQMNSLKPEDTAVYYCAKGWYRIKRNDYWGQGTQVTVSS ... low polyreactivity
10) QVQLVESGGGLVQAGGSLRLSCAASGRIFGTNAMGWYRQAPGKERELVADITSGGSTNYADSVKGRFTISRDNAKNTVYLQMNSLKPEDTAVYYCAADVIADLRWYRDEYWGQGTQLTVSS ... low polyreactivity
11) QVQLVESGGGVVQAGGSLRLSCAASVRTFPGYAMGWYRQAPGKERELVAAISWSGTSTYYADSVKGRFTISRDYAKNTVYLQMNSLKPEYTAVYDCNKVYTYSAPYYYWGQGTQVTVSS ... high polyreactivity

----------
Assay Explanation: yeast display, Sf9 membrane polyspecificity reagent, FACS + sequencing; frameworks hold sequencing errors
Readout Name: polyreactivity (PSR sort gate)

1. QVQLVESGGGLVQARGSLRLSCAASGITFRVNAMGWYRPAPGKERELVAAISRGGGSTYYADSVKGRFTISRDNAKNTVYLQMNSLKPEDTAVYFCAASYGAPYGYKRYYYWGQGTQVTVSS ... high polyreactivity
2. QVQLLESGGGLVKAGGSLRLSCPASGIIFYEYVMGWYRQAPGKERELVAAINRSGGSKYYADSVKGRFTISRDNAKNTVYLQMNSLKPEDTAVYYCAAKPYYFYGMDYWGQGTQVTVSS ... high polyreactivity
3. QVQLVESGGGLVQAGGSLRLSCAASGRIFPRYAMGWYRQAPGKERELVAGINSGGRTNYADSVKGRFTISRDNAKNTVYLQMNSLKPEDTAVYYCAKRTYPYGTYRSVWGYDYWGQGTQVTVSS ... low polyreactivity
4. QVQLVESAGGLVQAGGSLRLSCAPSGSIFVAYAMGGYLQAPGKERELVAAISWRSGSTYYADSVKGRFTISRDNAKNTVYLQMNSLKPEDTAVYYSAAKQDQDYYWGQGTQVTVSS ... low polyreactivity
5. QVQLVESGGGLVQAGGSLRLSCAASGSTFTPYAIGWYRQAPGKERELVAAIRRGGSTNYADSVKGRFTISRDNAKNTVYLQMNSLKPEDTAVYYCAATKRRFVKFDYWGQGTQVTVSS ... low polyreactivity
6. QVLLVESGGGLVQAGGSHRLSCAASGITIRFYAMGWYRQAPGKEREFHAAISRSGSTYYADSVKGRFTISRDNAKNTVYLHLNSVKPEDTAVYYCAADSYRSAQGLDYWGQGTQVTVSS ... high polyreactivity
7. QVQLVESGGGLVKAGGSLRLSCAASGRIFNWYVMGWSRQAPGKERELVAAISWGSGNTYYADSVKGRFTISRDNAKNTVYLQMNSLKPEDTAVYYCNKVRSYRSWRGKYDYWGQGTQVTVSS ... high polyreactivity
8. QVQLVESGGGLVQAGGSLRLSCAASGRTFTSNAMGWYRQAPGKERELVAAITRGGSTYYADSVKGRFTISRDNAKITVYLQMNSLKPEDTAVYYCAAAYGGRLRYTAGYYWGQGTQVTVSS ... high polyreactivity
9. QVQLVESGGGLVQAGGILRLSCAASGRIIQRYAMGWYRQAPGKERELVAAISSSGVSTYYADSVKGRFTISRDNAKNTVYLQMNSLKPEDTAVYYCNAVSSRVYRDYGYDYWGQGTQVTVSS ... low polyreactivity
10. QVQLLESGGGLVQAGGSLRLSCAASGRTSYIYSMGWYRKAPGKEREFVADITWSGGSTYYADSVKGRFTISRDNAKNTVYLQMNSLKPEDTAVYYCNADLLSWWGVEYYYWGQGTQVTVSS ... high polyreactivity
11. QVQLVESGGGLVQARGSLRLSCAASGGTFLSYAMGWYRQAPGKERELVAGISSGGSTNYADSVKGRFTISRDNAKNTVYLQMNSLKPEDTAVDYCAADSFPSEFDYWGQGTQVTVSS ... low polyreactivity
12. QVQLVESGGGLVQAGGSLRLSCAASGSIFWANAKGWYRQAPGKERELVATITSGGRTYYADSVKGRFTISRDNAKNTVYLQMNSLKPEDTAVYYCARVPPQYRWGRRLVYVHVDYWGQGTQVTVSS ... low polyreactivity
13. QVQLVESGGGLVQAGGSLRLSCAASGGIFSGNDMGWYRQAPGKERELVATITYSGGTTYYADSVKGRFTISRDNAKNTVYLQMNSLKPEDTAVYYCAADEYGPHTFSPEYDSWGQGTQVTVSS ... low polyreactivity
14. QVHLVESGGGLVQAGGSLRLSCAASGSTFFQYAMGWYRQAPGKERELVAAISSRGGRTYYADSVKGRFTISRDNAKNTVYLQMNRLKPEDTAVYYCATNRSVSYPYDGYYYWGQGTQVTVSS ... high polyreactivity
15. QVQHVESGGGLVQAGGSLRLSCAASGSTFSPNAMGWYRQAPGKERELVAAIRWRTGTTYYADSVKGRFTISRDNAKNTVYLQMNSLKPEDTAVYYCAAVYKPPNNKYGSAWEYGYWGQGTQVTVSS ... high polyreactivity
16. QVQLVESGGGLVQAGGSLRLSCAASGSIFSGYVMGWYRQAPGKERELVAAISGSGGSTYYADSVKGRFTISRDNAKNTVYLQMNSLNPEDTAVYYCNKGLSRSYWWVDYWGQGTQVTVSS ... low polyreactivity
17. QVQLVESGGGLVQAGGSLRLICAASGRIFHPYAMAWYRQAPGKERELVATISWSGGSTTYEDSVKGRFTISRDNAKNTVYLQMNSLKPEDTAVYYCNADYWWSYVRFVYWGQGTQVTVSS ... low polyreactivity
18. QVQLVESGGGLVQAGGSLRLSWAASGSNFDAYAMGWYRPAPGKERELVAAINARGGSTYYADSVKGRFTISRDNAKNTVYLQMNSLKPEETAVYDCNRLSRVRRYIYDYWGQGTQVTVSS ... high polyreactivity
19. QVQLVESGGGLVQAGGSLRLSCAASGLIFYSYAMGWYRQAPGKERELVAAINGGGGSTYYADSVKGRFTISRDNAKNTVYLQMNSLKPEDTAVYYCAAVRSIVDWGLMYYWGQGTQVTVSS ... high polyreactivity
20. QVQLVESGGGLVQAGGSLRLSCAASGLTFGTNSMGWYREAPGKEMELVAAISTSSGSTYYADSVKGRFTISRDNAKNTVYLLMNRLKPEDTAVFYCAAVTVTKLSYYRYYYWGQCTQVTVSS ... low polyreactivity
21. QVQLVDSGGGLVQAGGSLRLSCAASGSTLNVYAMGWSRQAPGKERELVATIRRRGTSTYYADSVKGRFTISRDNAKNTVYLQMNSLKPEDTAVYYCAADTRTYRLSSGSGHWEYDYWGQGTQVTVSS ... high polyreactivity

Sourced from the nanobody polyreactivity screen of Harvey et al. (2022)
